Values compiled from ChEMBL document CHEMBL3872241.

# System: HCT-116
# Assay info: Selectivity index, ratio of IC50 for human L02 cells to IC50 for human HCT116 cells
# Type: functional
Let's look at some molecules and their measured Ratio IC50.

// known answers, use as guide
COc1cc(OC)cc(/C(C#N)=C/c2ccc(C(F)(F)F)cc2)c1	>4.58
COc1cc(OC)cc(/C(C#N)=C/c2ccc(N(C)C)cc2)c1	>169.49
COc1cc(OC)cc(/C(C#N)=C/c2cccc3ccccc23)c1	3.59
COc1cc(OC)cc(/C(C#N)=C/c2ccc(Br)cc2)c1	>8.79
COc1cc(OC)cc(/C(C#N)=C/c2ccccc2Cl)c1	>11.57
COc1cc(OC)cc(/C(C#N)=C/c2ccco2)c1	>30.21

The molecule identified as COc1cc(OC)cc(/C(C#N)=C/c2cccc(F)c2)c1 registered its Ratio IC50 at >2.63

The molecule identified as COc1cc(OC)cc(/C(C#N)=C/c2ccccc2F)c1 registered its Ratio IC50 at >8.19

The molecule identified as CC(=O)O[C@H]1C(=O)[C@@]2(C)[C@H]([C@H](OC(=O)c3ccccc3)[C@]3(O)C[C@H](OC(=O)[C@H](O)[C@@H](NC(=O)c4ccccc4)c4ccccc4)C(C)=C1C3(C)C)[C@]1(OC(C)=O)CO[C@@H]1C[C@@H]2O registered its Ratio IC50 at >1000

====

# Assay info: Cytotoxicity against human L02 cells assessed as cell growth inhibition after 48 hrs by MTT assay
# Type: toxicity, cell-based
Experimental readout: IC50 at 48 h

// known answers, use as guide
COc1cc(OC)cc(/C(C#N)=C/c2ccccc2C(F)(F)F)c1	> 100 µM
COc1cc(OC)cc(/C(C#N)=C/c2cc(OC)c(OC)c(OC)c2)c1	> 100 µM

The molecule identified as COc1cc(OC)cc(/C(C#N)=C/c2ccc(Cl)cc2)c1 registered its IC50 at 48 h at > 100 µM

The molecule identified as COc1cccc(/C=C(\C#N)c2cc(OC)cc(OC)c2)c1 registered its IC50 at 48 h at > 100 µM

The molecule identified as COc1cc(OC)cc(/C(C#N)=C/c2ccccn2)c1 registered its IC50 at 48 h at 75.5 µM

The molecule identified as COc1cc(OC)cc(/C(C#N)=C/c2ccc(OCC(C)C)cc2)c1 registered its IC50 at 48 h at > 100 µM

The molecule identified as COc1cc(OC)cc(/C(C#N)=C/c2ccc(OCc3ccccc3)cc2)c1 registered its IC50 at 48 h at > 100 µM

====

# Assay info: Cytotoxicity against human HCT116 cells assessed as cell growth inhibition after 48 hrs by MTT assay
# Type: functional, cell-based
# Experimental parameters: HCT-116, 48 h
Experimental readout: IC50

The compound identified as COc1cc(OC)cc(/C(C#N)=C/c2ccc(F)cc2)c1 registered its IC50 at > 100 µM

The compound identified as COc1cc(OC)cc(/C(C#N)=C/c2ccccc2C(F)(F)F)c1 registered its IC50 at > 100 µM

The compound identified as COc1cccc(/C=C(\C#N)c2cc(OC)cc(OC)c2)c1 registered its IC50 at > 100 µM

The compound identified as COc1cc(OC)cc(/C(C#N)=C/c2ccccc2F)c1 registered its IC50 at 12.2 µM

The compound identified as COc1cc(OC)cc(/C(C#N)=C/c2ccc(OCc3ccccc3)cc2)c1 registered its IC50 at > 100 µM

The compound identified as CCCOc1ccc(/C=C(\C#N)c2cc(OC)cc(OC)c2)cc1 registered its IC50 at 14.2 µM
